system: MDA-MB-435; assay: NCI tumour cell line growth inhibition, 48 h
RESULT TYPE: TGI

Worked cases, answers included:
In [3]: df
Out[3]:
                                   molecule  result_type   reading
0  CSC(=N/N=C(\C)c1ccc(S(=O)(=O)N(C)c2ccccc2)cc1)SC          TGI  > 100 µM
1  COc1ccc(C2C3=C(COC3=O)N(CCO)c3cc4c(cc32)CCC4)cc1OC (centres undefined)          TGI  0.448 µM
2  C(=N\Nc1nnc(-c2nnc(N/N=C/c3ccccc3)o2)o1)/c1ccccc1          TGI   > 10 µM
3         CCN(Cc1cccc(C)c1)c1ccc(CO)c(Cl)c1          TGI   32.1 µM
4  C/C(=C\COc1ccc2ccc(=O)oc2c1)CCC(=O)C(C)(C)O          TGI   59.2 µM

Kindly note the recorded TGI for COc1cc(C2CC(c3cc(Cl)c(C)cc3O)=NN2c2ccc(S(N)(=O)=O)cc2)cc(OC)c1OC (centres undefined) , which is 8.47 µM

Kindly note the recorded TGI for `CC[C@@]1(O)C(=O)N(CCN(C)C)Cc2c1cc1n(c2=O)Cc2cc3ccccc3nc2-1` , which is > 100 µM

Kindly note the recorded TGI for `O=C(O)c1ccccc1/C=C1/Nc2ccccc2C1=O` , which is > 100 µM

Kindly note the recorded TGI for `O=C(Nc1ccc(I)cc1F)c1cc(F)ccc1O` , which is 4.45 µM
